# Target of assay: LPAR3 (Homo sapiens (Human), UniProt Q9UBY5)
# Sequence (Q9UBY5 whole entry, species assumed): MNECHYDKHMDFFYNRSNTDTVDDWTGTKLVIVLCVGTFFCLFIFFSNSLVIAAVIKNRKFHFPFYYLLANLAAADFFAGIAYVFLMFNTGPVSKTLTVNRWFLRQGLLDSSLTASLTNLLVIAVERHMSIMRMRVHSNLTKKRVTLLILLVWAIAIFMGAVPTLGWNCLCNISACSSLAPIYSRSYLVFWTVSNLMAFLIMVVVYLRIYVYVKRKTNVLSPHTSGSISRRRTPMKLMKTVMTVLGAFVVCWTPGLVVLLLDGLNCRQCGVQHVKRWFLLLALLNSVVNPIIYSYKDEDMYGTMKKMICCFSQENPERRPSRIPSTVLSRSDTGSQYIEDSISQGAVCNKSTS
# Experiment: Calcium flux assay using FLIPR, LPAR3 antagonist activity
# Study conditions: antagonist mode, calcium flux
Reported property: IC50 (µM)

1) C[C@H](OC(=O)Nc1c(-c2ccc(-c3ccc(C4(C(=O)O)CC4)cc3)cc2)nnn1C)c1cccc(C(F)(F)F)c1 [Example 5]    6.31
2) C[C@@H](OC(=O)Nc1c(-c2ccc(-c3ccc(C4(C(=O)NS(C)(=O)=O)CC4)cc3)cc2)nnn1C)c1cccc(C(F)(F)F)c1 [Example 13]    0.0657
3) C[C@@H](OC(=O)Nc1c(-c2ccc(-c3ccc(CC(=O)O)cc3)cc2)nnn1C)c1ccccc1 [Example 3]    21.9
4) C[C@@H](OC(=O)Nc1c(-c2ccc(-c3cccc(C4(C(=O)O)CC4)c3)cc2)nnn1C)c1ccccc1 [Example 9]    18.4
5) C[C@@H](OC(=O)Nc1c(-c2ccc(C3CCC(CC(=O)O)CC3)cc2)nnn1C)c1ccccc1 (stereo partly shown) [Example 14]    18.6
6) C[C@@H](OC(=O)Nc1c(-c2ccc(-c3ccc(C4(C(=O)O)CC4)cc3)cc2)nnn1C)c1ccccc1 [Example 2]    2.29
